This collection of values is drawn from the supplement of paper PMC8975748.

Tested on: Saccharomyces cerevisiae BY4741 SeMeCo community
Assay: z-score of subpopulation abundance vs DMSO median, subpopulation auxotrophic for LM; higher = larger share of this subpopulation than in DMSO controls
Details: 10 µM; 24 h; SM minimal medium; subpopulation (auxotrophy): LM
Where a name gives a salt, the structure may show the parent alone.
I'd appreciate it if you could label each record using z-score of subpopulation abundance and these ranges: LOW: < -0.3; MID: ≥ -0.3 and < 0.1; HIGH: ≥ 0.1

COc1cc(O)c(C(=O)Nc2nc(C(=O)NCCN(C(C)C)C(C)C)cs2)cc1OC [Acotiamide] :: HIGH
C[C@H](NCc1ccc(OCc2cccc(F)c2)cc1)C(N)=O [Safinamide Mesylate] :: HIGH
O=[N+]([O-])c1ccc(O)c2ncccc12 :: HIGH
Cn1nnc(-c2ccc(-c3ccc(N4C[C@H](COP(=O)(O)O)OC4=O)cc3F)cn2)n1 [Tedizolid Phosphate] :: LOW
Nc1ccc(S(=O)(=O)Nc2ncccn2)cc1 :: MID
CCC[C@@H]1C[C@@H](C(=O)N[C@@H]([C@H]2O[C@H](SC)[C@H](O)[C@@H](O)[C@H]2O)[C@H](C)Cl)N(C)C1 [Clindamycin HCl] :: HIGH
CCOc1cc(N)c(Cl)cc1C(=O)NCC1CN(Cc2ccc(F)cc2)CCO1 (centres undefined) [Mosapride Citrate] :: MID
CCOc1cc(NC(C)=O)ccc1C(=O)OC [Ethopabate] :: HIGH
O=C(Nc1cccc(C2=NCCN2)c1)Nc1cccc(C2=NCCN2)c1 [Imidocarb dipropionate] :: MID
Nc1ccc2cc3ccc(N)cc3nc2c1 [Proflavine] :: LOW
COc1ccc(Cc2cnc(N)nc2N)cc1OC :: MID
CCn1cc(C(=O)O)c(=O)c2cc(F)c(N3CCNCC3)nc21 [Enoxacin Sesquihydrate] :: MID
CCC(C)C1OC2(CCC1C)CC1CC(CC=C(C)C(OC3CC(OC)C(OC4CC(OC)C(O)C(C)O4)C(C)O3)C(C)C=CC=C3COC4C(O)C(C)=CC(C(=O)O1)C34O)O2 (centres undefined) :: HIGH
COc1cc(NS(=O)(=O)c2ccc(N)cc2)ncn1 :: LOW
CCCCCCCCc1ccc(CCC(N)(CO)CO)cc1 :: LOW
CC/C(=C(\c1ccccc1)c1ccc(OCCN(C)C)cc1)c1ccccc1 [Tamoxifen] :: HIGH
COC(=O)C1=C(C)NC(C)=C(C(=O)OCCN(C)Cc2ccccc2)C1c1cccc([N+](=O)[O-])c1 (centres undefined) [Nicardipine HCl] :: HIGH
Nc1nc(O)c2ncn(CCC(CO)CO)c2n1 :: MID
CO/N=C(\C(=O)N[C@@H]1C(=O)N2C(C(=O)O)=CCS[C@H]12)c1csc(N)n1 :: MID
NC1CCN(c2nc3c(cc2F)c(=O)c(C(=O)O)cn3-c2ccc(F)cc2F)C1 (centres undefined) [Tosufloxacin p-Toluenesulfonate Hydrate] :: LOW
CN1CCCN=C1/C=C/c1cccc(O)c1 [Oxantel Pamoate] :: LOW
CN1[C@@H](CC(=O)c2ccccc2)CCC[C@H]1C[C@H](O)c1ccccc1 [Lobeline hydrochloride] :: MID
CC1CCc2cc(F)cc3c(=O)c(C(=O)O)cn1c23 (centres undefined) :: LOW
NC(=O)c1cn(Cc2c(F)cccc2F)nn1 [Rufinamide] :: HIGH
CC1(C)[C@H](C(=O)O)N2C(=O)C[C@H]2S1(=O)=O [Sulbactam sodium] :: MID
COC(=O)C1=C(C)NC(C)=C(C(=O)OC(C)(C)CN(C)CCC(c2ccccc2)c2ccccc2)C1c1cccc([N+](=O)[O-])c1 (centres undefined) [Lercanidipine hydrochloride] :: HIGH
CO[C@@H]1[C@H](OC(=O)/C=C/C=C/C=C/C=C/C(=O)O)CC[C@]2(CO2)[C@H]1[C@@]1(C)O[C@@H]1CC=C(C)C :: HIGH
Cc1cc(NS(=O)(=O)c2ccc(N)cc2)nc(C)n1 :: HIGH
COc1cc(N)c(Cl)cc1C(=O)NC1CCN(CCCOc2ccc(F)cc2)CC1OC (centres undefined) [Cisapride] :: LOW
CCN1CCN(C(=O)N[C@@H](C(=O)N[C@@H]2C(=O)N3[C@@H]2SC(C)(C)[C@@H]3C(=O)O)c2ccccc2)C(=O)C1=O [Piperacillin Sodium] :: HIGH
CCCCOc1ccc(CC(=O)NO)cc1 :: LOW
Cc1ccc(Sc2ccccc2N2CCNCC2)c(C)c1 :: LOW
C[C@@H]1O[C@@H]1P(=O)(O)O [Fosfomycin Disodium] :: MID
CCN(CC)CCNC(=O)c1cc(Cl)c(N)cc1OC [Metoclopramide] :: MID

---

Test system: Saccharomyces cerevisiae BY4741 SeMeCo community
Assay: z-score of subpopulation abundance vs DMSO median, subpopulation auxotrophic for HLUM; higher = larger share of this subpopulation than in DMSO controls
Conditions: 10 µM; 24 h; SM minimal medium; subpopulation (auxotrophy): HLUM
Counter-ions that a name gives are not always drawn.
Mark N for z-score of subpopulation abundance values under 1, and Y for everything at or above.

CC(=O)NC[C@H]1CN(c2ccc(N3CCOCC3)c(F)c2)C(=O)O1 :: N
O=C(O)Cc1ccccc1Nc1c(Cl)cccc1Cl [Diclofenac acid] :: N
CN1C2CCCC1CC(NC(=O)c1nn(C)c3ccccc13)C2 (stereo not drawn) [Granisetron HCl] :: N
C[C@](N)(Cc1ccc(O)c(O)c1)C(=O)O :: N
Clc1ccc(C(Cn2ccnc2)OCc2ccc(Sc3ccccc3)cc2)c(Cl)c1 (stereo not drawn) [Fenticonazole Nitrate] :: Y
O=C(O[C@H]1CN2CCC1CC2)N1CCc2ccccc2[C@@H]1c1ccccc1 [Solifenacin succinate] :: N
c1ccc(-c2ccc(C(c3ccccc3)n3ccnc3)cc2)cc1 (stereo not drawn) :: Y
NCCc1ccc(O)c(O)c1 [Dopamine HCl] :: N
Cc1nc(=O)c2cc(CN(C)c3ccc(C(=O)N[C@@H](CCC(=O)O)C(=O)O)s3)ccc2[nH]1 :: N
C[n+]1ccccc1/C=N/O [Pralidoxime chloride] :: N
C/C=C1\[C@H]2C=C(C)C[C@]1(N)c1ccc(=O)[nH]c1C2 [(-)-Huperzine A (HupA)] :: N
Clc1ccc(C(Cn2ccnc2)OCc2c(Cl)cccc2Cl)c(Cl)c1 (stereo not drawn) [Isoconazole nitrate] :: Y
CN(C)CCN1C(=O)c2cccc3cc(N)cc(c23)C1=O [Amonafide] :: N
COc1ccc(CNc2nc(N3CCC[C@H]3CO)ncc2C(=O)NCc2ncccn2)cc1Cl :: N
COC(=O)C1=C(C)NC(C)=C(C(=O)OCC(C)C)C1c1ccccc1[N+](=O)[O-] (stereo not drawn) :: Y
Nc1nc(N)nc(-c2cc(Cl)ccc2Cl)n1 :: N
O=C1[C@@H]2[C@H]3CC[C@H](C3)[C@@H]2C(=O)N1C[C@@H]1CCCC[C@H]1CN1CCN(c2nsc3ccccc23)CC1 :: N
CCC1(c2ccccc2)C(=O)NCNC1=O :: N
CCC(=O)O[C@@H]1CC(=O)O[C@H](C)C/C=C/C=C/[C@H](O)[C@H](C)C[C@H](CC=O)[C@H](O[C@@H]2O[C@H](C)[C@@H](O[C@H]3C[C@@](C)(O)[C@@H](OC(=O)CC)[C@H](C)O3)[C@H](N(C)C)[C@H]2O)[C@H]1OC :: N
Cc1ncc([N+](=O)[O-])n1CCOC(=O)c1ccccc1 [Metronidazole Benzoate] :: N
COCCCN1CCC(NC(=O)c2cc(Cl)c(N)c3c2OCC3)CC1 [Prucalopride Succinate] :: Y
CC[C@H](c1ccc(O)cc1)[C@@H](CC)c1ccc(O)cc1 :: N
CC[C@H](C)C[C@H](C)CCCCCCCCC(=O)N[C@H]1C[C@@H](O)[C@@H](NCCN)NC(=O)[C@@H]2[C@@H](O)CCN2C(=O)[C@H]([C@H](O)CCN)NC(=O)[C@H]([C@H](O)[C@@H](O)c2ccc(O)cc2)NC(=O)[C@@H]2C[C@@H](O)CN2C(=O)[C@H]([C@@H](C)O)NC1=O [Caspofungin Acetate] :: Y
O=c1[nH]cc(F)c(=O)[nH]1 :: Y
CCN(CC)C(=O)[C@@]1(c2ccccc2)C[C@H]1CN [Levomilnacipran Hydrochloride] :: N
CCOc1cc(NC(C)=O)ccc1C(=O)OC [Ethopabate] :: Y
C#CCC(Cc1cnc2nc(N)nc(N)c2n1)c1ccc(C(=O)N[C@@H](CCC(=O)O)C(=O)O)cc1 (stereo partly drawn) [Pralatrexate] :: Y
C[C@]12CC[C@@H]3c4ccc(O)cc4CC[C@H]3[C@@H]1CC[C@@H]2O :: Y
NC(CO)(CO)CO :: N
CSc1nc2cc(Cl)c(Oc3cccc(Cl)c3Cl)cc2[nH]1 :: Y
O=C1CN2Cc3c(ccc(Cl)c3Cl)N=C2N1 [Anagrelide HCl] :: N
COc1cc(/C=C/C(=O)N2CCN(CC(=O)N3CCCC3)CC2)cc(OC)c1OC [Cinepazide maleate] :: N
Cc1cccc(C#Cc2ccccc2)n1 :: N
